test system: ICN1; assay: TGFβ induced increase of ICN1 levels in cultured podocytes, Western blot; type: cell-based, mouse; conditions: 5 ng/ml TGFβ; 100 nM GSI XX; 10 μM SB203580, PD or LY; GSI IX and GSI X data not shown
reported_property: TGFβ induced increase of ICN1 levels

The examples below pair each entry with its known result.
> print(dat)
                                   molecule  assayed.target  observed.result
1  CC(C)C[C@H](NC(=O)[C@H](Cc1ccccc1)C[C@@H](O)[C@H](Cc1ccccc1)NC(=O)OC(C)(C)C)C(=O)N[C@@H](Cc1ccccc1)C(N)=O [GSI X]            ICN1  fully sensitive
2  COc1cccc(-c2cc(=O)c3ccccc3o2)c1N [PD98059]            ICN1    not sensitive
3  C[C@H](NC(=O)Cc1cc(F)cc(F)c1)C(=O)N[C@H](C(=O)OC(C)(C)C)c1ccccc1 [GSI IX]            ICN1  fully sensitive
4  C[C@H](NC(=O)Cc1cc(F)cc(F)c1)C(=O)N[C@@H]1C(=O)N(C)c2ccccc2-c2ccccc21 [DBZ]            ICN1  fully sensitive

**Q:** Report TGFβ induced increase of ICN1 levels for C[S+]([O-])c1ccc(-c2nc(-c3ccncc3)c(-c3ccc(F)cc3)[nH]2)cc1 (centres unmarked) [SB203580] please.
**A:** not sensitive
